Cited source for all entries: ChEMBL document CHEMBL4177766

System: MRC5
Assay: Cytotoxicity against human MRC5 cells assessed as decrease in cell viability after 72 hrs by resazurin assay
Assay type: cell-based
Details: mrc5, 72 h
CC50 values for the molecules below.
State the answer as a number, implicitly in µM.

COc1ccc(C2=NN(C(C)C)C(=O)[C@@H]3CC=CC[C@H]23)cc1-c1ccc(C(=O)NCC(N)=O)cc1 (relative stereo) | 35

Now, please, on to the next molecule.
Fill in: CC50 of COc1ccc(C2=NN(C3CCCCCC3)C(=O)[C@@H]3CC=CC[C@H]23)cc1-c1ccc(C(=O)NCC(N)=O)cc1 (relative stereo) is ___
36

---

pKi values for the compounds below.
Biological target: UniProt Q07343
Sequence (Q07343 whole entry): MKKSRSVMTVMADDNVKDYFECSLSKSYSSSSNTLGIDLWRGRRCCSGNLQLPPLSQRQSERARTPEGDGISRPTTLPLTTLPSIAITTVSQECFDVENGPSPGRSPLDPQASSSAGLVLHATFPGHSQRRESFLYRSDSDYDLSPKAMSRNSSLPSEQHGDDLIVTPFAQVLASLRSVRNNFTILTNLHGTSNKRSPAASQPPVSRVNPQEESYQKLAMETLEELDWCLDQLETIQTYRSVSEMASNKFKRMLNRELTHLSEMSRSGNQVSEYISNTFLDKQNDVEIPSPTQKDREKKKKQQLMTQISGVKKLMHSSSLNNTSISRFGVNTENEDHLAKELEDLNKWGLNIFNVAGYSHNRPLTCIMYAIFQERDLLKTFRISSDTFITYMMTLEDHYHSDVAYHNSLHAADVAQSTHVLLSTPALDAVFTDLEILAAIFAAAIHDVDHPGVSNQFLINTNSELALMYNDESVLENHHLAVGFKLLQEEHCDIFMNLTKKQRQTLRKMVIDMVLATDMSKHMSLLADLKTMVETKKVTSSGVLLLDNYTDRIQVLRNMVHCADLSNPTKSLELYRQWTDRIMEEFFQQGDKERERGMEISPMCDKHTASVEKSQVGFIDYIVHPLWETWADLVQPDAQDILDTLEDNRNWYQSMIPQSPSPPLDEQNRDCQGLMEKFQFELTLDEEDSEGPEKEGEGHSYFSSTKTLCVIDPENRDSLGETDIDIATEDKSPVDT
Experiment: Inhibition of full length recombinant human PDE4B1 expressed in Sf21 insect cells using cAMP as substrate by scintillation proximity assay
Just so you know, pKi here is -log10 of the concentration in molar units; reply with that number alone.

Some solved cases for reference:
COc1ccc(C2=NN(C3CCCCCC3)C(=O)[C@@H]3CC=CC[C@H]23)cc1OCCCCOc1ccc(-c2nnn[nH]2)cc1 | 9.20
COc1ccc(C2=NN(C3CCCCCC3)C(=O)[C@@H]3CC=CC[C@H]23)cc1-c1ccc(C(=O)NCC(=O)NC(C)C)cc1 (relative stereo) | 5.20
COc1ccc(C2=NN(C3CCCCCC3)C(=O)[C@@H]3CC=CC[C@H]23)cc1-c1ccc(C(N)=O)cc1 (relative stereo) | 6.80
COc1ccc(C2=NN(C3CCCCCC3)C(=O)[C@@H]3CC=CC[C@H]23)cc1-c1ccc(C(=O)N(C)CC(N)=O)cc1 (relative stereo) | 5.60
COCCNC(=O)CNC(=O)c1ccc(-c2cc(C3=NN(C4CCCCCC4)C(=O)[C@@H]4CC=CC[C@H]34)ccc2OC)cc1 (relative stereo) | 5.40

Now, please, on to the next compound.
Lab note: need pKi with UniProt Q07343 for entry COc1ccc(C2=NN(C3CCCCCC3)C(=O)[C@@H]3CC=CC[C@H]23)cc1-c1ccc(C#N)cc1 (relative stereo) , please look it up.
7.50
